All figures here come from PubChem BioAssay (NCI).

System: SF-539 CNS
Experiment: NCI-60 one-dose screen, 48 h (100 = growth as untreated, 0 = no growth, -100 = all killed)
Settings: 10 µM unless noted
About 83,000 compounds went through this panel and 20% of them were active in at least one assay; those are over-represented in the sample as a whole. Activity calls are given as the source filed them. The calls were made as follows: active = growth percent below 10; inactive = the rest.
measurement name: growth

>>> print(df.to_string())
                                   compound    value_measured
0  O=C(Nc1ccccc1)Nc1ccc(C(=O)/C=C/c2ccc(N3CCCC3)cc2)cc1  78.7% (inactive)
1  COCCCNc1nc(NC(=O)c2cc(OC)cc(OC)c2)cc(-c2cccnc2)n1  88.9% (inactive)
2  N=C(N)c1ccc(-c2ccc(-c3ccc(-c4cccs4)s3)s2)cc1F  94.7% (inactive)
3  CCCCCn1sc(=O)n(Cc2ccc(CNC(=O)OCc3ccc4cccc(O)c4n3)cc2)c1=O   -69.6% (active)

List reported growth for each of these compounds:
1. Nc1cc(NN=C(c2ccc(O)cc2)c2ccc(O)cc2)c([N+](=O)[O-])cc1[N+](=O)[O-]
2. CCCOc1ccc(-c2nc(-c3ccc(N)cc3)cs2)cc1
3. CC1(C)CC[C@]2(C(N)=O)CC[C@]3(C)C(=CC[C@@H]4[C@@]5(C)C/C(=C/c6cccnc6)C(=O)C(C)(C)[C@@H]5CC[C@]43C)[C@@H]2C1
4. COc1cc(OC)cc(C(=O)Nc2cc(-c3cccnc3)nc(NCCCN3CCOCC3)n2)c1
5. CC(C)OC(=O)Nc1cc(F)ccc1F
6. CCC(C)[C@H](NC(=O)NC(=O)NC(=O)CI)C(=O)OC (stereo not given in full)

output:
-55.3% (active)
103% (inactive)
-61.5% [100 µM] (active)
91.1% (inactive)
92.1% (inactive)
91.5% (inactive)
